assay: Dasatinib single oral gavage plasma pharmacokinetics (NLME modeling); type: in vivo, mouse; details: male, C57BL/6, mouse, plasma, oral, 10 mg/kg, GROUP:VD3 Suf, SEX:M, OCC 2, time 2; read-out: DV (dasatinib plasma concentration)
assayEndpoint: concentration at 2 h (ng/mL)
Give the quantity in ng/mL, number only.

Prompt: Which measured concentration at 2 h value corresponds to Cc1nc(Nc2ncc(C(=O)Nc3c(C)cccc3Cl)s2)cc(N2CCN(CCO)CC2)n1 [dasatinib] ?
Completion: 366

---

experiment: Plasma DEX concentrations on discontinuous oral DEX regimen in drinking water (Fig 3); format: in vivo, mouse; conditions: female, C57BL/6, mouse, plasma, oral, 8 mg/L, Dexamethasone conc, avg; VD3 sufficient; D17.5; n=5
assayEndpoint: concentration at 17.5 day (nM)
The reply should contain only the number, in nM.

Prompt: Which concentration at 17.5 day value belongs to C[C@@H]1C[C@H]2[C@@H]3CCC4=CC(=O)C=C[C@]4(C)[C@@]3(F)[C@@H](O)C[C@]2(C)[C@@]1(O)C(=O)CO [DEX, dexamethasone] ?
Completion: 38.7
